The measured values listed here are drawn from patent US4593090A.

Provide the recorded Therapeutic ratio TR for the entries that follow.
Test system: Leukemia L1210
Assay: Activity against Leukemia L1210, oral, increase in life span of mice
Format: in vivo, female mice (BDF1 family)
Conditions: oral; O.D./ILS30
Procedure: Tests were conducted in accordance with the method for measuring antitumor activity of National Cancer Center Tokyo (A, Hoshi et al, Farumashia 9 464 (1973)). […] An increase percentage of life span (ILS%) was calculated from said average survival days compared with those of the control group. […]
Output spec: single numeric token, no unit.

Challenge: Record request: Therapeutic ratio TR value, item COCCN(C[C@H]1O[C@H](OCC(C)C)[C@@H](O)[C@@H](O)[C@@H]1O)C(=O)N(CCCl)N=O
Response given: 24.2

Challenge: Record request: Therapeutic ratio TR value, item COCCCO[C@H]1O[C@H](CN(C(=O)N(CCCl)N=O)C2CCCCC2)[C@@H](O)[C@H](O)[C@H]1O
Response given: 23.8

Challenge: Record request: Therapeutic ratio TR value, item COCC(C)N(C[C@H]1O[C@H](OC2CCCCC2)[C@H](O)[C@@H](O)[C@@H]1O)C(=O)N(CCCl)N=O (stereo partly shown)
Response given: 29.2

Challenge: Record request: Therapeutic ratio TR value, item CCC(COC)O[C@H]1O[C@H](CN(CC(C)(C)C)C(=O)N(CCCl)N=O)[C@@H](O)[C@H](O)[C@H]1O (stereo partly shown)
Response given: 24.5

* * *

experiment: Acute toxicity (LD50, Behrens-Karber method); type: in vivo, ICR mice; conditions: mouse, in vivo, ip, mortality during 30 days
Provide the recorded LD50 at 720 h for the entries that follow.
Report the value in mg/kg with no unit label.

Challenge: Record request: LD50 at 720 h value, item CCN(C[C@H]1O[C@H](OCC(C)C)[C@H](O)[C@@H](O)[C@H]1O)C(=O)N(CCCl)N=O
Response given: 390

Challenge: Record request: LD50 at 720 h value, item CCOCCCOC1OC(CO)C(O)C(N(CC(C)C)C(=O)N(CCCl)N=O)C1O (stereo not drawn)
Response given: 675

Challenge: Record request: LD50 at 720 h value, item CCOCCO[C@H]1O[C@H](CO)[C@@H](O)[C@H](O)[C@H]1N(CCC(C)(C)C)C(=O)N(CCCl)N=O
Response given: 515

Challenge: Record request: LD50 at 720 h value, item CCCCO[C@H]1O[C@H](CO)[C@@H](O)[C@H](O)[C@H]1N(CCCOC)C(=O)N(CCCl)N=O
Response given: 570

Challenge: Record request: LD50 at 720 h value, item CCCCCCN(C[C@H]1O[C@H](OCCCC)[C@H](O)[C@@H](O)[C@@H]1O)C(=O)N(CCCl)N=O
Response given: 410

Challenge: Record request: LD50 at 720 h value, item CCCN(C(=O)N(CCCl)N=O)C1C(CO)OC(OCC(C)C)C(O)C1O (stereo not drawn)
Response given: 325

Challenge: Record request: LD50 at 720 h value, item CC(C)CO[C@@H]1O[C@H](CN(CC(C)(C)C)C(=O)N(CCCl)N=O)[C@@H](O)[C@H](O)[C@H]1O
Response given: 540

Challenge: Record request: LD50 at 720 h value, item O=NN(CCCl)C(=O)N[C@H]1C(O)O[C@H](CO)[C@@H](O)[C@@H]1O (stereo partly drawn) [DCNU, reference compound]
Response given: 39

Challenge: Record request: LD50 at 720 h value, item COc1ccc(CO[C@H]2O[C@H](CN(CC(C)C)C(=O)N(CCCl)N=O)[C@@H](O)[C@H](O)[C@H]2O)cc1
Response given: 350

Challenge: Record request: LD50 at 720 h value, item COCCN(C[C@H]1O[C@H](OC2CCCCC2)[C@H](O)[C@@H](O)[C@H]1O)C(=O)N(CCCl)N=O
Response given: 660

Challenge: Record request: LD50 at 720 h value, item CCOCCN(C(=O)N(CCCl)N=O)C1C(OC2CCCCC2)OC(CO)C(O)C1O (stereo not drawn)
Response given: 650

Challenge: Record request: LD50 at 720 h value, item CCC(C)N(C(=O)N(CCCl)N=O)[C@H]1[C@H](O)[C@H](O)[C@@H](OCc2ccccc2)O[C@@H]1CO (stereo partly drawn)
Response given: 370

Challenge: Record request: LD50 at 720 h value, item CCCN(C[C@@H]1O[C@@H](OCC(C)C)[C@@H](O)[C@H](O)[C@@H]1O)C(=O)N(CCCl)N=O
Response given: 495

Challenge: Record request: LD50 at 720 h value, item CC(C)CN(C[C@H]1O[C@H](OCc2ccccc2)[C@@H](O)[C@H](O)[C@@H]1O)C(=O)N(CCCl)N=O
Response given: 420

Challenge: Record request: LD50 at 720 h value, item COC(C)CN(C(=O)N(CCCl)N=O)[C@@H]1[C@@H](OCC(C)C)OC[C@@H](O)[C@H]1O (stereo partly drawn)
Response given: 520

* * *

Provide the recorded ED (maximum ILS) for the entries that follow.
tested on: Leukemia L1210; assay: Activity against Leukemia L1210, intraperitoneal, increase in life span of mice; assay type: in vivo, female mice (BDF1 family); conditions: Mus musculus, L1210, ip, ip once a day for 5 successive days; daily dosage giving maximum increase of life span; read-out: O.D. (optimum dosage)
Report the value in mg/kg with no unit label.

Challenge: Record request: ED (maximum ILS) value, item CC(C)CO[C@H]1O[C@H](CN(CC2CCCO2)C(=O)N(CCCl)N=O)[C@@H](O)[C@H](O)[C@H]1O (stereo partly shown) [Compound 23]
Response given: 200

Challenge: Record request: ED (maximum ILS) value, item CCCCO[C@H]1O[C@H](CO)[C@@H](O)[C@H](O)[C@H]1N(CCCC)C(=O)N(CCCl)N=O [Compound 55]
Response given: 180

Challenge: Record request: ED (maximum ILS) value, item CC(C)CO[C@H]1O[C@H](CN(C(=O)N(CCCl)N=O)C(C)C)[C@@H](O)[C@H](O)[C@H]1O [Compound 13]
Response given: 120

Challenge: Record request: ED (maximum ILS) value, item CC(C)CN(C[C@H]1O[C@H](OC2CCCCC2)[C@H](O)[C@@H](O)[C@@H]1O)C(=O)N(CCCl)N=O [Compound 36]
Response given: 180

* * *

test system: Leukemia L1210; assay: Activity against Leukemia L1210, intraperitoneal, increase in life span of mice; type: in vivo, female mice (BDF1 family); conditions: ip; O.D./ILS30
Provide the recorded Therapeutic ratio TR for the entries that follow.

Challenge: Record request: Therapeutic ratio TR value, item COCCCOC1OC(CO)C(O)C(N(CC(C)C)C(=O)N(CCCl)N=O)C1O (stereo not shown)
Response given: 39.4

Challenge: Record request: Therapeutic ratio TR value, item CC(C)CO[C@@H]1O[C@H](CO)[C@@H](O)[C@H](O)[C@H]1N(C(=O)N(CCCl)N=O)C(C)(C)C
Response given: 30.5

Challenge: Record request: Therapeutic ratio TR value, item COCC(C)N(C(=O)N(CCCl)N=O)[C@H]1[C@@H](OCC(C)C)O[C@H](CO)[C@H](O)[C@@H]1O (stereo partly shown)
Response given: 39.6

Challenge: Record request: Therapeutic ratio TR value, item CC(C)CO[C@H]1O[C@H](CN(CC(C)(C)C)C(=O)N(CCCl)N=O)[C@@H](O)[C@H](O)[C@H]1O
Response given: 56.4

* * *

assay: Acute toxicity (LD50, Behrens-Karber method); type: in vivo, ICR mice; settings: mouse, in vivo, ip, mortality during 30 days
attribute_measured: LD50 at 720 h (mg/kg)
Report the value in mg/kg with no unit label.

Challenge: Record request: LD50 at 720 h value, item C=C(C)CN(C(=O)N(CCCl)N=O)[C@H]1[C@@H](OC(C)CC)O[C@H](CO)[C@@H](O)[C@@H]1O (stereo partly shown) [Compound 60]
Response given: 580

Challenge: Record request: LD50 at 720 h value, item CC(C)CN(C(=O)N(CCCl)N=O)[C@@H]1[C@H](OC2CCCCC2)O[C@H](CO)[C@H]1O [Compound 162]
Response given: 500

Challenge: Record request: LD50 at 720 h value, item CC(C)N(C(=O)N(CCCl)N=O)[C@@H]1CO[C@H](OC2CCCCC2)[C@H](O)[C@H]1O [Compound 148]
Response given: 480

Challenge: Record request: LD50 at 720 h value, item CCOCCN(C[C@H]1O[C@H](OCC(C)C)[C@H](O)[C@@H](O)[C@H]1O)C(=O)N(CCCl)N=O [Compound 109]
Response given: 655

Challenge: Record request: LD50 at 720 h value, item CCCCO[C@H]1O[C@H](CN(CCOCCO)C(=O)N(CCCl)N=O)[C@@H](O)[C@H](O)[C@H]1O [Compound 12]
Response given: 505

Challenge: Record request: LD50 at 720 h value, item CCOCCN(C(=O)N(CCCl)N=O)[C@H]1[C@@H](OCC(C)C)O[C@H](CO)[C@H](O)[C@@H]1O [Compound 123]
Response given: 730

Challenge: Record request: LD50 at 720 h value, item C=C(C)CN(C(=O)N(CCCl)N=O)C1C(O)C(CO)OC(OC(C)CC)C1O (stereo not shown) [Compound 85]
Response given: 685
